B1: DCAF4 (parent)
chain: PGIDRPGMLCSFRIPGAWSCAWSL

# Variants of: B1
# Protocol Description: protein stability index of a GFP-peptide fusion (GPS, HEK-293T) (PSI 1-6); higher = more stable;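 note: lentivirally expressed fusions sorted by FACS into six bins by GFP to DsRed ratio, PSI derived from sequencing read proportions per bin multiplied by bin number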
# Protocol Conditions: c terminus: a fixed tail appended
Please map values of protein stability index to classes as shown: group 1 = under 2, group 2 = from 2 up to 3, group 3 = 3 and over

Problem: Which protein stability index band matches "PGIDRPGMLCSFRIPDAWSCAWSL" ?
Solution: group 2

Problem: // repeat for "PGIDRPGMLCDFRIPGAWSCAWSL" and report
Solution: group 2

Problem: // repeat for "PGIDRPGMLCSFRFPGAWSCAWSL" and report
Solution: group 2

Problem: // repeat for "PGIDRPIMLCSFRIPGAWSCAWSL" and report
Solution: group 3

Problem: // repeat for "PGIWRPGMLCSFRIPGAWSCAWSL" and report
Solution: group 2

Problem: // repeat for "GGIDRPGMLCSFRIPGAWSCAWSL" and report
Solution: group 3

Problem: // repeat for "PGIDRPGMLCSFYIPGAWSCAWSL" and report
Solution: group 2

Problem: // repeat for "PGIDDPGMLCSFRIPGAWSCAWSL" and report
Solution: group 3

Problem: // repeat for "PGIDRPGMLCSFRIPGAWSNAWSL" and report
Solution: group 2

Problem: // repeat for "PGIDRPGMLCSFRIVGAWSCAWSL" and report
Solution: group 1

Problem: // repeat for "PGIDRPGMLCSFRIPGAWSCASSL" and report
Solution: group 1

Problem: // repeat for "PGIDRPGELCSFRIPGAWSCAWSL" and report
Solution: group 2

Problem: // repeat for "PGIDRPGMLCCFRIPGAWSCAWSL" and report
Solution: group 2

Problem: // repeat for "PGIDRPGMLCSFRIPWAWSCAWSL" and report
Solution: group 1

Problem: // repeat for "PGIDRHGMLCSFRIPGAWSCAWSL" and report
Solution: group 2

Problem: // repeat for "PGIDEPGMLCSFRIPGAWSCAWSL" and report
Solution: group 3

Problem: // repeat for "PGIDRPGMLCSFRIPGAWSCAWKL" and report
Solution: group 2

Problem: // repeat for "PGIDRPGMLCHFRIPGAWSCAWSL" and report
Solution: group 3

Problem: // repeat for "PGIDRPGMLCSGRIPGAWSCAWSL" and report
Solution: group 2
